- ASSAY INFO: physchem
- CONDITION PARAMETERS: water
PROPERTY MEASURED: solubility

>>> obs_value("O=C1CN(N=Cc2ccc([N+](=O)[O-])o2)C(=O)N1")
"160 µg/mL"

----------
- ASSAY INFO: physchem
- CONDITION PARAMETERS: phosphate buffer, pH 7.5, aqueous buffer
PROPERTY MEASURED: solubility (µg/mL)

>>> obs_value("O=C1CN(N=Cc2ccc([N+](=O)[O-])o2)C(=O)N1")
620

----------
- ASSAY INFO: physchem
- CONDITION PARAMETERS: 0.01N HCl, simulated gastric fluid
PROPERTY MEASURED: solubility

>>> obs_value("O=C1CN(N=Cc2ccc([N+](=O)[O-])o2)C(=O)N1")
"140 µg/mL"
